Assay: self-splicing fitness, log relative to wild type (ln ratio); higher = more splicing; Tetrahymena group I intron in knt gene, E. coli kanamycin selection, DiMSum; sequences stand for … in CUCUCU…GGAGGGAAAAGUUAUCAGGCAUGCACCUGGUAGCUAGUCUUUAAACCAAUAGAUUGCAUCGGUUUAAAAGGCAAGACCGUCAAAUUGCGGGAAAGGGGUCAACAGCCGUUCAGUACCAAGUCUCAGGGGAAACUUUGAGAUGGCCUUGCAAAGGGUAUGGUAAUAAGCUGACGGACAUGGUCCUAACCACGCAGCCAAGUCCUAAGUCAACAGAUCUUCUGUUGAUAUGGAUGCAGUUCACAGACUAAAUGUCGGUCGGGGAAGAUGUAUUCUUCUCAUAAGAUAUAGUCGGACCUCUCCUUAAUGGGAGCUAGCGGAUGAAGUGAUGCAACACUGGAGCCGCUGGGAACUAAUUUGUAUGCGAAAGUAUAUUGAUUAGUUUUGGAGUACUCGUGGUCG;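 also: selection with 25 µg/mL kanamycin versus none on LB agar overnight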
Conditions: 37 °C
recorded-endpoint: self-splicing fitness (ln)

sequence-data: ACAGAGCAAUAUUACGGAAU
measurement: -1.86
//
sequence-data: CCCUAGCAAUAUUACGAGGC
measurement: -4.06
//
sequence-data: ACGAAGCAAUAUUACGGUCU
measurement: -0.225
//
sequence-data: UCUCAGCAAUAUUACGGGAC
measurement: -2.87
//
sequence-data: GCGUAGCAAUAUUACGUAUC
measurement: -0.739
//
sequence-data: CAUUAGCAAUAUUACGUUGC
measurement: -2.8
//
sequence-data: GCUAAGCAAUAUUACGAGGU
measurement: -1.51
//
sequence-data: UUAUAGCAAUAUUACGCUAC
measurement: -1.33
//
sequence-data: GAAAAGCAAUAUUACGAAAA
measurement: -2.42
//
sequence-data: UGUCAGCAAUAUUACGUGAA
measurement: 0.427

Task item: // query self-splicing fitness (ln) value for entry UCCUAGCAAUAUUACGUAGA
Reply: -0.729

Task item: // query self-splicing fitness (ln) value for entry CAGAAGCAAUAUUACGUUGG
Reply: -0.698
